Molecular target: GDP-bound KRAS protein (aa 1-169), containing both G12D and C118A amino acid substitutions (Homo sapiens, UniProt P01116, C118A/G12D)
Sequence (P01116 1-169 isoform P01116-2 G12D/C118A): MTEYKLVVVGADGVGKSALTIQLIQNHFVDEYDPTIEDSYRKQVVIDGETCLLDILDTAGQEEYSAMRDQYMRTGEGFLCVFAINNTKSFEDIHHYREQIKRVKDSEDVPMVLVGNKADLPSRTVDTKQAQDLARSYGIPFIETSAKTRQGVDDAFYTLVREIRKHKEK
Assay: KRAS G12D Coupled Nucleotide Exchange Assay
Format: biochemical
Settings: 2 h compound pre-incubation; SOS-mediated nucleotide exchange, cRAF AlphaScreen readout
Avg 2 h Coupled Exchange IC50 listing for selected molecules.
Your answer should be a plain number; it is taken to be in nM.

>  <molecule>
CN1CCCC[C@H]1COc1nc(N2CCNCC2)c2cc(Cl)c(-c3cccc4sc(N)nc34)c(F)c2n1

>  <Avg 2 h Coupled Exchange IC50 [nM]>
446

$$$$
>  <molecule>
CN(C)C1CN(c2nc(N3CCNCC3)c3cc(Cl)c(-c4cccc5sc(N)nc45)c(F)c3n2)C1

>  <Avg 2 h Coupled Exchange IC50 [nM]>
670

$$$$
>  <molecule>
Nc1nc2c(-c3c(Cl)cc4c(N5CCNCC5)nc(OCC56CCCN5CCC6)nc4c3F)cccc2s1

>  <Avg 2 h Coupled Exchange IC50 [nM]>
14

$$$$
>  <molecule>
C[C@H](CN(C)C)Oc1nc(N2CCNCC2)c2cc(Cl)c(-c3cccc4sc(N)nc34)c(F)c2n1

>  <Avg 2 h Coupled Exchange IC50 [nM]>
1890

$$$$
>  <molecule>
CN1CCC[C@H]1COc1nc(N2CCNC3CC32)c2cc(Cl)c(-c3cccc4sc(N)nc34)c(F)c2n1 (stereo partly shown)

>  <Avg 2 h Coupled Exchange IC50 [nM]>
63

$$$$

Q. Data request, read-out Avg 2 h Coupled Exchange IC50, for CN1CCO[C@H]2CN(c3nc(N4CCNCC4)c4cc(Cl)c(-c5cccc6sc(N)nc56)c(F)c4n3)C[C@@H]21 (relative stereo)
A. 1530

###

Molecular target: His-tagged KRAS G12D protein (Homo sapiens, UniProt P01116, G12D)
Sequence (P01116 1-188 isoform P01116-2 G12D): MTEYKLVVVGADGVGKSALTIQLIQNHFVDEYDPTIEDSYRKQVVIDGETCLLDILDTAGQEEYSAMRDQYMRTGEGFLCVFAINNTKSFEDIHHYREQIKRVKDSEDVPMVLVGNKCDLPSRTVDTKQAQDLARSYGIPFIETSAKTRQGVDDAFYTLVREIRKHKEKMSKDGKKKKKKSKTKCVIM
Experiment: KRAS G12D TR-FRET Assay;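 further: europium anti-His antibody paired with streptavidin-d2 as FRET partners, initial 30 min incubation, then peptide 1 h and detection reagents 1 h, all at room temperature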
Conditions: biotinylated KRPep-2d substrate, 10 μM GDP
quantity name: pIC50
// pIC50 is dimensionless: -log10 of concentration (M)

Q. Data request, read-out pIC50, for CN1CCC[C@H]1CCOc1nc(N2C[C@H]3C[C@@H](C2)N3)c2cc(Cl)c(-c3ccc(F)c4sc(N)nc34)c(F)c2n1
A. 7.54

Q. Data request, read-out pIC50, for Nc1nc2c(-c3c(Cl)cc4c(N5CCNCC5)nc(OC[C@@H]5CCC(=O)N5)nc4c3F)cccc2s1
A. 6.08

Q. Data request, read-out pIC50, for CN1CCC[C@H]1COc1nc(N2CCNC[C@@H]2CCO)c2cc(Cl)c(-c3cccc4sc(N)nc34)c(F)c2n1
A. 5.23

###

Avg 2 h Coupled Exchange IC50 listing for selected compounds.
Molecular target: GDP-bound KRAS protein (aa 1-169), containing both G12D and C118A amino acid substitutions (Homo sapiens, UniProt P01116, C118A/G12D)
Assay: KRAS G12D Coupled Nucleotide Exchange Assay;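 further: IC50 obtained by fitting the AlphaScreen signal with a four-parameter logistic curve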
Assay type: biochemical
Conditions: 2 h compound pre-incubation; SOS-mediated nucleotide exchange, cRAF AlphaScreen readout
Your answer should be a plain number; it is taken to be in nM.

Some solved cases for reference:
>  <compound>
Nc1nc2c(-c3c(Cl)cc4c(N5CCNCC5)nc(NCC(O)c5cncs5)nc4c3F)cccc2s1 (stereo not shown)

>  <unit>
nM

>  <Avg 2 h Coupled Exchange IC50>
1900

$$$$
>  <compound>
Cc1c(-c2ccc(F)c3sc(N)nc23)ccc2c(N3C[C@H]4CC[C@@H](C3)N4)nc(OC[C@@]34CCCN3C[C@H](F)C4)nc12

>  <unit>
nM

>  <Avg 2 h Coupled Exchange IC50>
3

$$$$
>  <compound>
CN1CCC[C@H]1COc1nc(N2C3CCC2C(=O)NC3)c2cc(Cl)c(-c3cccc4sc(N)nc34)c(F)c2n1 (stereo partly shown)

>  <unit>
nM

>  <Avg 2 h Coupled Exchange IC50>
471

$$$$

Q. Data request, read-out Avg 2 h Coupled Exchange IC50, for Nc1nc2c(-c3c(Cl)cc4c(N5CC6CC5CCN6)nc(OC[C@@]56CCCN5C[C@H](F)C6)nc4c3F)ccc(F)c2s1 (stereo partly shown)
A. 4

Hey, just so you know, these numbers are from patent US20250059179A1.
